# Tested on: PC-3 prostate
# protocol_summary: NCI-60 one-dose screen, 48 h (100 = growth as untreated, 0 = no growth, -100 = all killed)
# condition_description: 10 µM unless noted
About 83,000 compounds went through this panel and 20% of them were active in at least one assay; those are over-represented in the sample as a whole.
// returns label 0 unless growth is strictly below 70%, in which case label 1

Check out these entries, answers already filled in.
> print(dat)
                                   molecule    class
1  NC(=O)c1cccc([C@@H]2O[C@H](CO)[C@@H](O)[C@H]2O)c1  label 1
2  O=C(CCCCCCN1CC(=O)N2[C@H](c3ccc(Br)cc3)c3[nH]c4ccccc4c3C[C@@H]2C1=O)NO  label 1
3  O=C1/C(=C/c2ccc(O)c(O)c2)COc2ccc(-c3ccccc3)cc21  label 1
4  COC(=O)c1nc(-c2ccccc2)oc1S(=O)(=O)NCC(c1ccc(Cl)cc1)N1CCOCC1 (stereo not given)  label 1
5     O=C(NNc1cnccn1)c1nc2cc(F)ccc2n2cccc12  label 1
6   Nn1c(=O)c(=O)[nH]c2c(cnn2-c2ccccc2)c1=O  label 0
7  Cc1nc2c(c(=O)[nH]1)C(c1ccccc1)c1ccc3ccccc3c1O2 (stereo not given)  label 1
8  CSC1=Nc2c(c(C)c(-c3ccccc3)n2CCCC(=O)O)C2=NC(=O)C[C@H](C)N12  label 0

Query string: Item `CCN(CC)Cc1cc(Nc2ccnc3cc(Cl)ccc23)ccc1O` : growth beneath 70%, strictly?
Result string: label 0

Query string: Item `Cc1c(CC(=S)N2CCOCC2)nnn1-c1cccc(C(F)(F)F)c1` : growth beneath 70%, strictly?
Result string: label 0

Query string: Item `Cc1ccc(C(=O)c2ccc(CC(=O)N=Nc3c(O)[nH]c4ccc(Br)cc34)n2C)cc1` : growth beneath 70%, strictly?
Result string: label 0

Query string: Item `CCOC(=O)c1cnc2c(N=Nc3ccc(OC)cc3)c(N)nn2c1N` : growth beneath 70%, strictly?
Result string: label 0

Query string: Item COc1cc2c(c(OC)c1OC)C(=O)CC(c1cccc(NC(=O)c3ccc(C#N)cc3)c1)O2 (stereo not given) : growth beneath 70%, strictly?
Result string: label 1

Query string: Item `COc1ccc(-c2nn(-c3ccccc3)cc2/C=C/C(=O)NNC(=O)Nc2ccc(C)cc2)cc1` : growth beneath 70%, strictly?
Result string: label 0

Query string: Item `O=C(CN1CCCCCC1)Nc1nc2ccc(NCc3ccc(Cl)cc3)cc2s1` : growth beneath 70%, strictly?
Result string: label 0

Query string: Item `Cc1ccc(-c2nc(SCc3nc4cc(Cl)c(Cl)cc4[nH]3)[nH]c(=O)c2C#N)cc1` : growth beneath 70%, strictly?
Result string: label 0

Query string: Item `CS(=O)(=O)c1ccc(NC(=O)c2ccccc2)nc1` : growth beneath 70%, strictly?
Result string: label 0

###

# Test system: HS 578T breast
# protocol_summary: NCI-60 one-dose screen, 48 h
# condition_description: 10 µM unless noted
Compounds without any hit were thinned out: in the full panel of roughly 83,000, 20% have a hit. The source made the active and inactive calls. How the source made its calls: active means growth percent below 10; inactive means the rest.
In this exercise, the only acceptable responses are active, inactive

compound	class
CCOC(=O)c1c(C)nc2ccccc2c1/C=C/c1cccs1	inactive
C=C1CC[C@@H]2[C@](C)(COC(C)=O)[C@H](OC(C)=O)CC[C@@]2(C)[C@@H]1CC(Nc1ccc(S(=O)(=O)NC(C)=O)cc1)C1=CCOC1=O (stereo not given in full)	inactive
Cc1c(Cl)cccc1C(=O)Nc1nc2c(s1)CN(C(=O)c1ccc(C(F)(F)F)cc1)CC2	inactive

Query string: Assay outcome for `COc1cc(C2C(C(=O)OCc3ccccc3)=C(C)NC(C)=C2C(=O)OCc2ccccc2)cc(OC)c1OC` : what was it?
Result string: inactive

Query string: Assay outcome for `NC(=O)c1cccc([C@@H]2O[C@H](CO)[C@@H](O)[C@H]2O)c1` : what was it?
Result string: active

###

# Test system: SNB-19 CNS
# protocol_summary: NCI-60 one-dose screen, 48 h
# condition_description: 10 µM unless noted
This is part of a sample that, as a whole, favours compounds with a hit. Of some 83,000 tested, about 20% had one in any assay. Calls of active or inactive are those of the source. Rule for the calls: active = growth percent below 10; inactive = the rest.
In this exercise, the only acceptable responses are active, inactive

Check out these entries, answers already filled in.
molecule	class
O=C(/C=C/c1ccc(Cl)cc1)c1cccc(OCCCOc2cccc(C(=O)/C=C/c3ccc(Cl)cc3)c2)c1	inactive
O=C(Nc1cc(Cl)ccc1O)c1cccc(Nc2ccnc(C(F)(F)F)c2)c1	inactive
CC1CCN(C(=O)CCCl)c2ccccc21 (stereo unspecified)	inactive
COC(=O)CC[C@@H]1O[C@@H](c2ccc(F)cc2)[C@@H](O)[C@H]1O	inactive
COc1cc(/C=C2\CN(S(=O)(=O)c3ccccc3)C/C(=C\c3cc(CN4CCCCC4)c(O)c(OC)c3)C2=O)cc(CN2CCCCC2)c1O	active

Query string: Assay outcome for `[2H]C([2H])([2H])Oc1ccc(F)cc1/C=C/C(=O)/C=C(/C=C/c1cc(F)ccc1OC([2H])([2H])[2H])OB(F)F` : what was it?
Result string: inactive

Query string: Assay outcome for `CCCCNc1nnc2n(Cc3ccccc3)c(=O)c3c4c(sc3n12)CCCC4` : what was it?
Result string: inactive

Query string: Assay outcome for `Cc1ccc(S(=O)(=O)c2nc(-c3ccccc3)oc2Sc2nc3ccccc3s2)cc1` : what was it?
Result string: inactive

Query string: Assay outcome for `COC(=O)c1c2c(c(C)[n+]([O-])c1C)C(=O)C(NCc1cccc(Cl)c1)=CC2=O` : what was it?
Result string: active

Query string: Assay outcome for `COc1ccc(/C=C/c2ccc3ccccc3n2)c(OC)c1` : what was it?
Result string: inactive

Query string: Assay outcome for `N#CSc1c[nH]c2cccc(/C=C/C(=O)/C=C(O)/C=C/c3cccc4[nH]cc(SC#N)c34)c12` : what was it?
Result string: active

Query string: Assay outcome for `CNC(=O)c1cc(Oc2ccc3c(c2)sc2nc(-c4ccc(OC)cc4)cn23)ccn1` : what was it?
Result string: inactive

Query string: Assay outcome for `Cc1cccc(Oc2ccc(Nc3ncnc4ccc(NC(=O)CN5CCN(C)CC5)cc34)cc2Cl)c1` : what was it?
Result string: inactive

Query string: Assay outcome for `C[C@@H]1O[C@@H](O[C@@H]2C[C@H](c3ccc4c(c3O)C(=O)C3=C(C4=O)[C@@]4(O)C(=O)C[C@](C)(O)C[C@@]4(O)C=C3)O[C@H](C)[C@H]2O)CC[C@@H]1O[C@H]1C[C@@H](O)[C@H](O)[C@@H](C)O1` : what was it?
Result string: inactive

Query string: Assay outcome for `COc1ccc(/C=C/C(=O)c2cc3c(N)c(C(=O)Nc4cccc(Cl)c4C)sc3nc2C)cc1` : what was it?
Result string: active

Query string: Assay outcome for `COc1cccc(C(=O)NNc2nc(Cl)nc(Cl)n2)c1` : what was it?
Result string: inactive

Query string: Assay outcome for Nc1nc2c(c3ncccc13)C(c1cccc(Cl)c1)Cc1ncccc1-2 (stereo unspecified) : what was it?
Result string: inactive

Query string: Assay outcome for `COC(=O)CCC/C=C\C[C@H]1C=CC(=O)/C1=C/C[C@@H](O)C/C=C\CC(F)(F)F` : what was it?
Result string: inactive

Query string: Assay outcome for `COc1cc2nc3sc(C(=O)Nc4ccc(C(=O)OC(C)C)cc4)c(C(=O)Nc4ccc(Cl)cc4C)n3c(=O)c2cc1OC` : what was it?
Result string: inactive

Query string: Assay outcome for CCN1C(=O)N(CC)C2Nn3c(s/c(=C\c4ccccc4Br)c3=O)=NC21 (stereo unspecified) : what was it?
Result string: inactive

Query string: Assay outcome for `CCN1C2CCC1/C(=C\c1ccc(F)cc1)C(=O)/C2=C/c1ccc(F)cc1` : what was it?
Result string: inactive

Query string: Assay outcome for CCN1C(=O)N(CC)C2C1NC(=S)N2/N=C/c1ccc(OC)cc1 (stereo unspecified) : what was it?
Result string: inactive

Query string: Assay outcome for CC1C=CC(OC(=O)C(C)(O)CCC(O)(C(=O)OC2CC(O)C(C(C)C)CC2(C)O)C(C)C)(C(C)C)CC1 (stereo unspecified) : what was it?
Result string: active

###

# Test system: T-47D breast
# protocol_summary: NCI-60 one-dose screen, 48 h
# condition_description: 10 µM unless noted
The panel holds about 83,000 compounds, 20% with a hit somewhere; the sample as a whole holds those more often. The source made the active and inactive calls. The calls were made as follows: active = growth percent below 10; inactive = the rest.
In this exercise, the only acceptable responses are YES for active, NO for inactive

Check out these entries, answers already filled in.
> print(dat)
                                   molecule  class
1  O=c1cc(-c2ccccc2)[nH]c2ncc(-c3ccc(F)cc3)n12     NO
2  CN(Cc1cc(Br)cc(Br)c1O)Cc1cc(Br)cc(Br)c1O     NO
3  CN1C(=O)/C(=C/c2ccc(C(=O)Nc3ncc(Cc4cccc(Cl)c4)s3)cc2)SC1=S     NO

Query string: Assay outcome for `O=C(Nc1ccccc1[N+](=O)[O-])c1ccc(Cl)c(Cl)c1` : what was it?
Result string: NO

Measured values drawn from PubChem BioAssay (NCI) for this set.
